This collection of values is drawn from paper PMC8956951.

Study target: T1, Fu-bc subunit protein (Dengue virus (DENV-2-like E domain II), …)
T1 chain: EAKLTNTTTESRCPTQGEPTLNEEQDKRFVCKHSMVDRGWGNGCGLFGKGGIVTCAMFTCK
Assay explanation: BLI
Quantity name: pKd
Expect pKd as a plain number equal to -log10 of the molar concentration.

Field: example entries. Status: answers known.
scFv-mutant17 (Y33Q, G103T, S227L) (scFv, V domains shown) VH: EVKLVESGGGLVLPGGSLRLSCATSGFTFTDYQMTWVRQPPGKALEWLGFIGNKANDYTTEYSASVKGRFTISRDDSQSILYLQMSTLRAEDRATYYCATVYTNYPYFDVWGAGTTVAVSS VL: QIVLTQSPAIMSASPGEKVTMTCSASSSVSYMHWYQQKSGTSPKIWIYESSKLASGVPVRFSGSGSGTSYSLTISSMEAEDVATYYCQQWSLHPHPLTFGAGTKLELK = 7.51
scFv-mutant15 (D31L, Y105W, S227W) (scFv, V domains shown) VH: EVKLVESGGGLVLPGGSLRLSCATSGFTFTLYYMTWVRQPPGKALEWLGFIGNKANDYTTEYSASVKGRFTISRDDSQSILYLQMSTLRAEDRATYYCATVYGNWPYFDVWGAGTTVAVSS VL: QIVLTQSPAIMSASPGEKVTMTCSASSSVSYMHWYQQKSGTSPKIWIYESSKLASGVPVRFSGSGSGTSYSLTISSMEAEDVATYYCQQWSWHPHPLTFGAGTKLELK = 7.68
scFv-mutant16 (T30W, Y33Q, S227W) (scFv, V domains shown) VH: EVKLVESGGGLVLPGGSLRLSCATSGFTFWDYQMTWVRQPPGKALEWLGFIGNKANDYTTEYSASVKGRFTISRDDSQSILYLQMSTLRAEDRATYYCATVYGNYPYFDVWGAGTTVAVSS VL: QIVLTQSPAIMSASPGEKVTMTCSASSSVSYMHWYQQKSGTSPKIWIYESSKLASGVPVRFSGSGSGTSYSLTISSMEAEDVATYYCQQWSWHPHPLTFGAGTKLELK = 7.33

Next item in the queue.
Problem: Please look up its pKd: scFv-mutant18 (Y33Q, Y105W, H230W) (scFv, V domains shown) VH: EVKLVESGGGLVLPGGSLRLSCATSGFTFTDYQMTWVRQPPGKALEWLGFIGNKANDYTTEYSASVKGRFTISRDDSQSILYLQMSTLRAEDRATYYCATVYGNWPYFDVWGAGTTVAVSS VL: QIVLTQSPAIMSASPGEKVTMTCSASSSVSYMHWYQQKSGTSPKIWIYESSKLASGVPVRFSGSGSGTSYSLTISSMEAEDVATYYCQQWSSHPWPLTFGAGTKLELK
Solution: 6.51
